This collection of values is drawn from BigSolDB 2.1.

Details: in n-pentyl acetate, 323.15 K
measure-name: solubility (mole fraction)
Numbers only.

Tell me the measured solubility (mole fraction) of Nc1nc2ccc(OC(F)(F)F)cc2s1 , please. 0.46

* * *

Settings: in n-pentyl acetate, 318.15 K
measure-name: solubility (mole fraction)
Answers are plain numbers.

Tell me the measured solubility (mole fraction) of Nc1nc2ccc(OC(F)(F)F)cc2s1 , please. 0.439

* * *

Conditions: in n-pentanol, 283.15 K
measure-name: solubility (mole fraction)

Tell me the measured solubility (mole fraction) of Nc1nc2ccc(OC(F)(F)F)cc2s1 , please. 0.205

* * *

Conditions: in ethanol, 298.15 K
measure-name: solubility (mole fraction)
Numbers only.

Tell me the measured solubility (mole fraction) of Nc1nc2ccc(OC(F)(F)F)cc2s1 , please. 0.222

* * *

Details: in acetone, 308.15 K
measure-name: solubility (mole fraction)
Give bare numbers.

Tell me the measured solubility (mole fraction) of Nc1nc2ccc(OC(F)(F)F)cc2s1 , please. 0.437

* * *

Settings: in ethanol, 278.15 K
measure-name: solubility (mole fraction)
Answers are plain numbers.

Tell me the measured solubility (mole fraction) of Nc1nc2ccc(OC(F)(F)F)cc2s1 , please. 0.179

* * *

Conditions: in 2-propoxyethanol, 313.15 K
measure-name: solubility (mole fraction)

Tell me the measured solubility (mole fraction) of Nc1nc2ccc(OC(F)(F)F)cc2s1 , please. 0.521

* * *

Conditions: in n-pentyl acetate, 278.15 K
measure-name: solubility (mole fraction)
Numbers only.

Tell me the measured solubility (mole fraction) of Nc1nc2ccc(OC(F)(F)F)cc2s1 , please. 0.348

* * *

Details: in n-pentanol, 303.15 K
measure-name: solubility (mole fraction)
Numbers only.

Tell me the measured solubility (mole fraction) of Nc1nc2ccc(OC(F)(F)F)cc2s1 , please. 0.264

* * *

Details: in acetonitrile, 313.15 K
measure-name: solubility (mole fraction)
Give bare numbers.

Tell me the measured solubility (mole fraction) of Nc1nc2ccc(OC(F)(F)F)cc2s1 , please. 0.336

* * *

Settings: in 2-methoxyethanol, 283.15 K
measure-name: solubility (mole fraction)
One number for each entry.

Tell me the measured solubility (mole fraction) of Nc1nc2ccc(OC(F)(F)F)cc2s1 , please. 0.398

* * *

Details: in DMAc, 283.15 K
measure-name: solubility (mole fraction)
Numbers only.

Tell me the measured solubility (mole fraction) of Nc1nc2ccc(OC(F)(F)F)cc2s1 , please. 0.0968

* * *

Conditions: in acetonitrile, 278.15 K
measure-name: solubility (mole fraction)
Give bare numbers.

Tell me the measured solubility (mole fraction) of Nc1nc2ccc(OC(F)(F)F)cc2s1 , please. 0.156

* * *

Settings: in n-propyl acetate, 278.15 K
measure-name: solubility (mole fraction)
One number for each entry.

Tell me the measured solubility (mole fraction) of Nc1nc2ccc(OC(F)(F)F)cc2s1 , please. 0.349

* * *

Settings: in n-butanol, 308.15 K
measure-name: solubility (mole fraction)
Numbers only.

Tell me the measured solubility (mole fraction) of Nc1nc2ccc(OC(F)(F)F)cc2s1 , please. 0.268

* * *

Conditions: in n-butanol, 278.15 K
measure-name: solubility (mole fraction)
One number for each entry.

Tell me the measured solubility (mole fraction) of Nc1nc2ccc(OC(F)(F)F)cc2s1 , please. 0.185

* * *

Settings: in ethanol, 323.15 K
measure-name: solubility (mole fraction)

Tell me the measured solubility (mole fraction) of Nc1nc2ccc(OC(F)(F)F)cc2s1 , please. 0.308
